# System: P. aeruginosa 1218019
# Type: cell-based, Pseudomonas aeruginosa
# Measurement setup: 1218019, 20 h
# Description: All minimum inhibitory concentrations (MICs) were determined according to the Clinical and Standards Laboratory Institute (CLSI) guidelines. In brief, agar plates were inoculated from glycerol stocks and incubated overnight at 35 °C. Peptide DMSO stocks were dispensed into 96-well round-bottom plates using a TECAN D300e dispenser. […] Images of all plates were recorded, and MIC was assessed visually.
Where a SMILES comes first, the peptide text is derived from it. [ ]: non-standard residue; d: D form. The star is where a group is joined. d(aIle) = CC[C@H](C)[C@@H](N)C(=O)O; dDab = NCC[C@@H](N)C(=O)O; Octanoyl = CCCCCCCC(=O)*; Dab = NCC[C@H](N)C(=O)O
Measured quantity: MIC (µg/mL)
Give the value, in units of µg/mL, as a plain number.

The molecule listed as CCCCCCCC(=O)N[C@H](Cc1ccccc1)C(=O)N[C@H](CCN)C(=O)N[C@@H](C(=O)N[C@H](CO)C(=O)N[C@H](Cc1c[nH]c2ccccc12)C(=O)N[C@@H](CO)C(=O)N[C@@H](CO)C(=O)N[C@H](CCN)C(=O)N[C@@H](Cc1c[nH]c2ccccc12)C(=O)N[C@@H](CO)C(=O)N[C@H](C(=O)N[C@@H](C(=O)N[C@@H](CCN)C(=O)O)[C@@H](C)CC)C(C)C)[C@H](C)CC [Oct-TriD] (Octanoyl-[dF][dDab][dI][dS][dW]SS[dDab]WSV[d(aIle)][Dab]-OH) has a reported MIC of 32
